Biological target: human GLP-1 receptor (human, UniProt P43220 24-463)
Assay: cell-based or functional assay
Bridge positions count the residues as written; N and C are the ends. Square brackets hold non-standard residues; d marks the D form. Ends that are not written are not given here. * marks the point of attachment. Acetyl(2-(4-imidazolyl)) = O=C(Cc1c[nH]cn1)*; Aib = CC(C)(N)C(=O)O
Here the recorded In vitro activity compared to native peptide (%) vs GLP-1 is given for each entry.
reportedProperty: In vitro activity compared to native peptide (%) vs GLP-1

>>> recordedmeasurement("H[Aib]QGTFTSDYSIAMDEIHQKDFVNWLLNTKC (bridge 16-20) [Triple agonist of SEQ ID NO: 35]")
7.5
>>> recordedmeasurement("{Acetyl(2-(4-imidazolyl))}-[Aib]QGTFTSDYSICMDEKHQKDFVNWLLNTK (bridge 15-19) [Triple agonist of SEQ ID NO: 59]")
40.3
>>> recordedmeasurement("{Acetyl(2-(4-imidazolyl))}-[Aib]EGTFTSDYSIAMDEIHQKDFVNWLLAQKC (bridge 15-19) [Triple agonist of SEQ ID NO: 90]")
7.4
